Readout Kind: melting point

Here's what some known entries look like.
1) Nc1cc(Nc2ccc(C(F)(F)F)cc2)nc(-c2c(C3CC3)nc3ccc(F)cn23)c1 ... 160 to 162 °C
2) CCn1nc(C(F)(F)F)c(-c2cncc(Nc3ccc(C(F)(F)F)cc3)n2)c1C ... 150 to 151 °C
3) Cc1nc2c(F)cc(F)cn2c1-c1cc(C#N)cc(Nc2ccc(OC(F)F)c(F)c2)n1 ... 238 to 241 °C
4) Cc1nc2ccc(F)cn2c1-c1cncc(Nc2ccc(F)cc2)n1 ... 208 to 210 °C

Entry `COc1ccc(Nc2cncc(-c3c(C)noc3C)n2)cn1` , melting point reported as 173 to 174 °C

Entry `Cc1nn(C)c(C)c1-c1cccc(Nc2ccc(OC(F)F)cc2)n1` , melting point reported as 71 to 72 °C

Entry `Cc1cn2c(-c3cc(C#N)cc(Nc4ccc(C(F)(F)F)cc4)n3)c(C)nc2c(C)n1` , melting point reported as 237 to 238 °C

Entry `FC(F)(F)c1ccc(Nc2cncc(-c3c(C4CC4)nc4ccc(C(F)(F)F)cn34)n2)cc1` , melting point reported as 240 to 241 °C

Entry `Cc1nc2ccc(F)cc2n1-c1cncc(Nc2ccc(OC(F)F)c(F)c2)n1` , melting point reported as 230 to 231 °C

Entry `Fc1ccc2nc(C(F)F)c(-c3cncc(Nc4ccc(C(F)(F)F)cc4)n3)n2c1` , melting point reported as 180 to 182 °C

Entry `Fc1cc(F)c2nc(C3CC3)n(-c3cncc(Nc4ccc(OC(F)(F)F)cc4)n3)c2c1` , melting point reported as 218 to 220 °C

Entry `Cc1nc2ccc(F)cn2c1-c1cncc(Nc2cccc(F)c2)n1` , melting point reported as 270 to 273 °C

Entry `COc1ccc(Nc2cccc(-c3c(C(F)(F)F)nc4ccc(OC)cn34)n2)cc1` , melting point reported as 139 to 140 °C

Entry `Cc1nc2ccc(F)cn2c1-c1cncc(Nc2ccc(C(F)(F)F)cc2)n1` , melting point reported as 160 to 162 °C

Entry `Cc1nc2c(F)cc(F)cn2c1-c1cc(C#N)cc(Nc2ccc(C(F)(F)F)cc2)n1` , melting point reported as 243 to 245 °C

----------
Readout Kind: melting point

Entry Cc1nc2ccc(F)cn2c1-c1cc(C#N)cc(Nc2ccccc2)n1 [compound 646] , melting point reported as 176 to 178 °C

----------
- Tested on: Bmi-1 protein
- Measurement Notes: Sandwich ELISA Assay (Bmi-1 protein level in HT-1080 cells after compound treatment)
- Type: cell-based
- Condition Set: read-out: ELISA EC50 value for Bmi-1 protein, Table 1, Bmi-1 sandwich ELISA
pEC50: −log10 of the molar value.
Reported pEC50 values are given for each entry in this list.

1) COc1ccc(Nc2nc(-n3c(C)nc4ccccc43)ccc2N)cc1 ... 7.00 to 8.00

Entry `O=[N+]([O-])c1cc(Nc2ccc(C(F)(F)F)cc2)nc(-c2c(C(F)(F)F)nc3ccc(F)cn23)c1` , pEC50 reported as 7.00 to 8.00

Entry `Nc1cc(Nc2ccc(C(F)(F)F)cc2)nc(-c2c(C(F)(F)F)nc3ccc(F)cn23)c1` , pEC50 reported as 7.00 to 8.00

Entry `FC(F)Oc1ccc(Nc2cncc(-c3cccc4nc(C5CC5)cn34)n2)cc1` , pEC50 reported as 7.00 to 8.00

Entry `COc1ccc(Nc2ccc(N)c(-c3c(C(F)(F)F)nc4ccccn34)n2)cc1` , pEC50 reported as 5.52 to 7.00

Entry `FC(F)(F)c1ccc(Nc2cncc(-c3c(C(F)(F)F)nn4ccccc34)n2)cc1` , pEC50 reported as 7.00 to 8.00

Entry `Cn1nc2c(c1-c1cncc(Nc3ccc(C(F)(F)F)cc3)n1)CCCC2` , pEC50 reported as 8.00 to 9.00

Entry `Cc1nc(Cl)c(Cl)n1-c1cncc(Nc2ccc(C(F)(F)F)cc2)n1` , pEC50 reported as 5.52 to 7.00
